# credit: paper PMC10726135

Target: HNF4alpha8 (COS-7 nuclear extract) (Homo sapiens, UniProt P41235-5 1-452)
Sequence: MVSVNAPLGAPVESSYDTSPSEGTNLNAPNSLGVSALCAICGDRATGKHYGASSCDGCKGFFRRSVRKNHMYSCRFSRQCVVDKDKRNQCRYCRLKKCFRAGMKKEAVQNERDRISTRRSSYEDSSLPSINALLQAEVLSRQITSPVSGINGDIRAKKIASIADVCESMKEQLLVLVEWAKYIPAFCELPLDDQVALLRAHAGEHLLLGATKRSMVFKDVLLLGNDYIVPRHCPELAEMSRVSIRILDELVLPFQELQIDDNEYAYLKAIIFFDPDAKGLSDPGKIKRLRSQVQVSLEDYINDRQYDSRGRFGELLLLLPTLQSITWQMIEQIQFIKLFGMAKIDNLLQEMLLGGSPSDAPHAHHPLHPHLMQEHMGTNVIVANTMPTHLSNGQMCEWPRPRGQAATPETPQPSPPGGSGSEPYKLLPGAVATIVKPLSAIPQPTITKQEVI
Experiment: protein-binding microarray; COS-7 nuclear extract on double-stranded Agilent 4x180k PBM; binding buffer, salt, pH and temperature not given in the material; high values mean tight binding
Settings: chain copies: 2; label: 3' end of strand 1 on the slide; dsDNA, one strand shown
Whole data set: some 18,000 sequences, median “log2 normalized intensity” near 0.36, cut for the highest 2% near 7.3. Many of the other results were omitted from the sample, so the highest values are more common in it than they were.
I'd appreciate it if you marked entries t when binding signal is lower than 8 log2 normalized intensity and f when it is not.

Just wondering, is binding signal of AGGGGTTACTAGTGAGTTGGACTTTGGACCGCCTAGGGAGATTAGAGTATCGGTCGA below 8 log2 normalized intensity?
f

* * *

Target: HNF4alpha8 (COS-7 nuclear extract) (Homo sapiens, UniProt P41235-5 1-452)
Sequence: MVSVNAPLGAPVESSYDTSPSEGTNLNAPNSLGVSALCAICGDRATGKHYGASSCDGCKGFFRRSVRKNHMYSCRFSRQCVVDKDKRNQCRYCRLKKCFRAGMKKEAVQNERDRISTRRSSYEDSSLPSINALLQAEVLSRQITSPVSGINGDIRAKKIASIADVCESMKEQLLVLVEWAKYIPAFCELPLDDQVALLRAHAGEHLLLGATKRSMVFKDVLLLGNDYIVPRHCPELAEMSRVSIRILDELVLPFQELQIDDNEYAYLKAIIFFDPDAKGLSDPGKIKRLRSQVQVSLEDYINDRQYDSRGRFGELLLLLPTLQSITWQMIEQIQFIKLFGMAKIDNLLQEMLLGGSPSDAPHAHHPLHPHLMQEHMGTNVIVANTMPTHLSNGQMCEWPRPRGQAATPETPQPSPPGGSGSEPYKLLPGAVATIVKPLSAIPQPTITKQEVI
Assay: protein-binding microarray; COS-7 nuclear extract on double-stranded Agilent 4x180k PBM; binding buffer, salt, pH and temperature not given in the material; high values mean tight binding
Details: chain copies: 2; label: 3' end of strand 1 on the slide; dsDNA, one strand shown
Over roughly 18,000 sequences, “log2 normalized intensity” has its median near 0.36; the highest 2% begin near 7.3. The full list was thinned out, with the highest values kept by preference.
I'd appreciate it if you marked entries Y when binding signal is lower than 3 log2 normalized intensity and N when it is not.

Example entries and their recorded answers appear below.
AGACATCGACCTTTGTGGGCTTCAGACATTGCCTAGGGAGATTAGAGTATCGGTCGA	Y
ATCCCCTCCTGGACTTTGGTCTCATGGGCCGCCTAGGGAGATTAGAGTATCGGTCGA	N
TTCGGTGCTGACCTTTGTTCACATTTGTGCGCCTAGGGAGATTAGAGTATCGGTCGA	N
AGTGTTTCAAAGGAGTGTCTTTCTCCTTGAGCCTAGGGAGATTAGAGTATCGGTCGA	Y
ATGAGATACCCATTCACATGACCTTTGTCCGCCTAGGGAGATTAGAGTATCGGTCGA	N
ATACCCATTCACATGACCTTTGTCCGTTCCGCCTAGGGAGATTAGAGTATCGGTCGA	N
TAAGCTACTGAAAATGACCTTTGTTCCCTGGCCTAGGGAGATTAGAGTATCGGTCGA	N
ACATGACCTTTGTCCGTTCCTGCCTGGAGCGCCTAGGGAGATTAGAGTATCGGTCGA	N
AGAATGGAGAAAACAACATTCCTTGTGTTTGCCTAGGGAGATTAGAGTATCGGTCGA	Y
AGGCAGTCTGTTGACCTTTGGCCAAGGGCAGCCTAGGGAGATTAGAGTATCGGTCGA	N

Just wondering, is binding signal of AAGACCCAAGGCGTATGAAGCTTTGACCCTGCCTAGGGAGATTAGAGTATCGGTCGA below 3 log2 normalized intensity?
N
